Where these numbers come from: patent US11155567B2

Each entry below lists one item and its recorded EC50 value.
- target or system: Human STING (Homo sapiens, UniProt Q86WV6, G230A/H232R/R293Q/R71H)
- Sequence (Q86WV6 whole entry R71H/G230A/H232R/R293Q): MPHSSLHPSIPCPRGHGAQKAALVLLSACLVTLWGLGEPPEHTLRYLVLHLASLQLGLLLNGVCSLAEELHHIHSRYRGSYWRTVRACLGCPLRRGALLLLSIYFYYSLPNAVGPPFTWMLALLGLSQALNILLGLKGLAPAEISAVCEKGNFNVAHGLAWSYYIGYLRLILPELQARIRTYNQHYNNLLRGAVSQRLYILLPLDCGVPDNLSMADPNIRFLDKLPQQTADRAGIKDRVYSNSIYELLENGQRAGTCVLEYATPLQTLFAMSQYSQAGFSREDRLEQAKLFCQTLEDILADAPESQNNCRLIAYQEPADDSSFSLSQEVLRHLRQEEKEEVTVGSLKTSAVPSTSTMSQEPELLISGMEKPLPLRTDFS
- assay method text: Activation of human STING signaling in permeabilized THP1 cells, IRF3 induction
- run parameters: THP1-Dual cells permeabilized with digitonin buffer 30 minutes on ice, then 24 h in RPMI media
- Protocol: To evaluate IRF3 reporter levels, cell culture supernatant (20 μl) from each incubated sample was added to QUANTI-Luc™ assay solution (Invivogen, 50 μl), and the luminescence was measured with a SpectraMax M3 spectrophotometer (Molecular Devices). […]

smiles str | EC50
CCc1nc(C)oc1C(=O)Nc1nc2cc(CNC(C)=O)cc(OC)c2n1C/C=C/Cn1c(NC(=O)c2oc(C)nc2CC)nc2cc(C(N)=O)cc(OCCCO)c21 | 1000 to 50000 nM
CCc1nc(C)sc1C(=O)Nc1nc2cc(C(N)=O)cc(OCCCO)c2n1C/C=C/Cn1c(NC(=O)c2cc(C)nn2CC)nc2cc(C(N)=O)ccc21 | < 1000 nM
CCc1nc(C)oc1C(=O)Nc1nc2cc(C(N)=O)cnc2n1C/C=C/Cn1c(NC(=O)c2oc(C)nc2CC)nc2cc(C(N)=O)cnc21 | 1000 to 50000 nM
CCc1nn(C)cc1C(=O)Nc1nc2cc(C(N)=O)cc(OC)c2n1C/C=C/Cn1c(NC(=O)c2cn(C)nc2CC)nc2cc(C(N)=O)cc(OCCCO)c21 | 1000 to 50000 nM
CCc1nc(C)oc1C(=O)Nc1nc2cc(C(N)=O)cnc2n1C/C=C/Cn1c(NC(=O)c2oc(C)nc2CC)nc2cc(C(N)=O)cc(Br)c21 | < 1000 nM

With those in mind, consider the next compound.
Data point: CCc1nn(C)cc1C(=O)Nc1nc2cc(C(N)=O)cc(OCCCO)c2n1C/C=C/Cn1c(NC(=O)c2cc(C)nn2CC)nc2cc(C(N)=O)ccc21 ; EC50 = < 1000 nM

* * *

- target or system: Human STING (HAQ allele) (Homo sapiens, UniProt Q86WV6, G230A/H232R/R293Q/R71H)
- Construct: THP1-Dual™ Human Monocytes cells with the homozygous HAQ allele
- Sequence (Q86WV6 whole entry R71H/G230A/H232R/R293Q): as above
- assay method text: IRF3 reporter induction in THP1-Dual Human Monocytes cells (homozygous HAQ STING allele)
- run parameters: IRF3 reporter (secreted luciferase), 24 hours incubation
- Procedure: THP1-Dual™ Human Monocytes cells with the homozygous HAQ allele, known to be a natural variant allele of STING occurring in 20% of the human population (Invivogen) have been engineered with two independent gene reporter systems: a secreted embryonic alkaline phosphatase (SEAP) reporter gene for NFkB activity, and secreted luciferase reporter for […] (IRF3) activity were used. […] NFkB levels were evaluated using a spectrophotometer at 620-655 nm. […]
pEC50: −log10 of the molar value.
value type: pEC50

Consider the reported pEC50 for these compounds:
compound | pEC50
CCc1nc(C)oc1C(=O)Nc1nc2cc(C(N)=O)cc(OC)c2n1C/C=C/Cn1c(NC(=O)c2oc(C)nc2CC)nc2cc(C(N)=O)cc(OCCCN)c21 [compound 18] | 7.00 to 7.52
CCn1nc(C)cc1C(=O)/N=c1\sc2cc(C(N)=O)cc(OC)c2n1C/C=C/Cn1c(NC(=O)c2cc(C)nn2CC)nc2cc(C(N)=O)cc(OCCCO)c21 [compound 65] | > 7.52
CCc1nc(C)oc1C(=O)/N=c1\sc2cc(C(N)=O)cc(OC)c2n1C/C=C/Cn1c(NC(=O)c2oc(C)nc2CC)nc2cc(C(N)=O)cc(OCCCO)c21 [compound 63] | ≤ 7.00
CCc1nc(C)oc1C(=O)Nc1nc2cc(C(N)=O)cc(OCCCO)c2n1C/C=C/Cn1/c(=N/C(=O)c2cc(C)nn2CC)sc2cc(C(N)=O)cc(OC)c21 [compound 69] | ≤ 7.00
CCc1nc(C)oc1C(=O)/N=c1\sc2cc(C(N)=O)cc(OC)c2n1C/C=C/Cn1c(NC(=O)c2oc(C)nc2CC)nc2cc(C(N)=O)cc(OCCCC(=O)O)c21 [compound 66] | ≤ 7.00

Bench note, Human STING (HAQ allele) (Homo sapiens, UniProt Q86WV6, G230A/H232R/R293Q/R71H): entry CCc1nc(C)oc1C(=O)Nc1nc2cc(C(N)=O)cc(OC)c2n1C/C=C/Cn1c(NC(=O)c2cc(C)nn2CC)nc2cc(C(N)=O)cc(OCCCO)c21 [compound 43] , its pEC50 = > 7.52

Bench note, Human STING (HAQ allele) (Homo sapiens, UniProt Q86WV6, G230A/H232R/R293Q/R71H): entry CCc1nc(C)oc1C(=O)Nc1nc2cc(C(N)=O)cnc2n1C/C=C/Cn1c(NC(=O)c2oc(C)nc2CC)nc2cc(C(N)=O)cc(OCCCC(=O)O)c21 [compound 97] , its pEC50 = ≤ 7.00

Bench note, Human STING (HAQ allele) (Homo sapiens, UniProt Q86WV6, G230A/H232R/R293Q/R71H): entry CCc1nc(C)oc1C(=O)Nc1nc2cc(C(N)=O)cc(OC)c2n1C/C=C/Cn1c(NC(=O)c2oc(C)nc2CC)nc2cc(C(N)=O)cc(OCCCO)c21 [compound 9] , its pEC50 = 7.00 to 7.52

Bench note, Human STING (HAQ allele) (Homo sapiens, UniProt Q86WV6, G230A/H232R/R293Q/R71H): entry CCc1nc(C)oc1C(=O)/N=c1\sc2cc(C(N)=O)cnc2n1C/C=C/Cn1c(NC(=O)c2oc(C)nc2CC)nc2cc(C(N)=O)cc(OCCCO)c21 [compound 109] , its pEC50 = 7.00 to 7.52

Bench note, Human STING (HAQ allele) (Homo sapiens, UniProt Q86WV6, G230A/H232R/R293Q/R71H): entry CCc1nc(C)oc1C(=O)/N=c1\sc2nc(C(N)=O)cnc2n1C/C=C/Cn1c(NC(=O)c2oc(C)nc2CC)nc2cc(C(N)=O)cc(OCCCO)c21 [compound 167] , its pEC50 = ≤ 7.00

Bench note, Human STING (HAQ allele) (Homo sapiens, UniProt Q86WV6, G230A/H232R/R293Q/R71H): entry CCc1nn(C)cc1C(=O)Nc1nc2cc(C(N)=O)cc(OCCCO)c2n1C/C=C/Cn1c(NC(=O)c2cc(C)nn2CC)nc2cc(C(N)=O)ccc21 [compound 53] , its pEC50 = ≤ 7.00

* * *

- target or system: Human STING (Homo sapiens, UniProt Q86WV6, G230A/H232R/R293Q/R71H)
- assay method text: Activation of human STING signaling in permeabilized THP1 cells, IRF3 induction
- run parameters: THP1-Dual cells permeabilized with digitonin buffer 30 minutes on ice, then 24 h in RPMI media
pEC50: −log10 of the molar value.
Each entry below lists one item and its recorded pEC50 value.

smiles str | pEC50
CCc1nc(C)sc1C(=O)Nc1nc2cc(C(N)=O)cc(OC)c2n1C/C=C/Cn1c(NC(=O)c2sc(C)nc2CC)nc2cc(C(N)=O)cc(OCCCO)c21 | > 6.00
CCc1nc(C)oc1C(=O)Nc1nc2cc(NC(C)=O)cc(OC)c2n1C/C=C/Cn1c(NC(=O)c2oc(C)nc2CC)nc2cc(C(N)=O)cc(OCCCO)c21 | 4.30 to 6.00
CCc1nc(C)oc1C(=O)/N=c1\sc2cc(C(N)=O)cc(OCCCO)c2n1C/C=C/Cn1c(NC(=O)c2cc(C)nn2CC)nc2cc(C(N)=O)cnc21 | > 6.00

Bench note, Human STING (Homo sapiens, UniProt Q86WV6, G230A/H232R/R293Q/R71H): entry CCc1nc(C)oc1C(=O)/N=c1\sc2cc(C(N)=O)cc(OCCCO)c2n1C/C=C/Cn1c(NC(=O)c2oc(C)nc2CC)nc2cc(C(N)=O)cnc21 , its pEC50 = > 6.00

Bench note, Human STING (Homo sapiens, UniProt Q86WV6, G230A/H232R/R293Q/R71H): entry CCc1nc(C)oc1C(=O)Nc1nc2cc(CN)cc(OC)c2n1C/C=C/Cn1c(NC(=O)c2oc(C)nc2CC)nc2cc(C(N)=O)cc(OCCCO)c21 , its pEC50 = > 6.00

Bench note, Human STING (Homo sapiens, UniProt Q86WV6, G230A/H232R/R293Q/R71H): entry CCn1nc(C)cc1C(=O)Nc1nc2cc(C(N)=O)cnc2n1C/C=C/Cn1c(NC(=O)c2oc(C)nc2C)nc2cc(C(N)=O)cc(OCCCO)c21 , its pEC50 = 4.30 to 6.00

* * *

Each entry below lists one item and its recorded EC50 value.
- target or system: Human STING (HAQ allele) (Homo sapiens, UniProt Q86WV6, G230A/H232R/R293Q/R71H)
- Construct: THP1-Dual™ Human Monocytes cells with the homozygous HAQ allele; host or cells: THP1-Dual human monocytes
- assay method text: IRF3 reporter induction in THP1-Dual Human Monocytes cells (homozygous HAQ STING allele)
- Assay type: cell-based
- run parameters: IRF3 reporter (secreted luciferase), 24 hours incubation

Consider the reported EC50 for these compounds:
compound | EC50
CCc1nc(C)oc1C(=O)/N=c1\sc2cc(C(N)=O)cc(OCCCO)c2n1C/C=C/Cn1c(NC(=O)c2oc(C)nc2CC)nc2cc(C(N)=O)cnc21 [compound 146] | ≥ 100 nM
CCc1nc(C)oc1C(=O)/N=c1\sc2cc(C(N)=O)cc(OCCCO)c2n1C/C=C/Cn1c(NC(=O)c2cc(C)nn2CC)nc2cc(C(N)=O)cnc21 [compound 148] | ≥ 100 nM

With those in mind, consider the next compound.
Data point: CCc1nc(C)oc1C(=O)Nc1nc2cc(C(N)=O)cnc2n1C/C=C/Cn1c(NC(=O)c2oc(C)nc2CC)nc2cc(C(N)=O)cc(OCCCO)c21 [compound 95] ; EC50 = 30 to 100 nM
